Assay: cells
Details: Homo sapiens, OVCAR-3, 96 h
Description: Antiproliferative activity against KIF18A siRNA sensitive human OVCAR-3 cells assessed as decrease in nuclei number measured after 4 days incubation by Hoechst 33342 DNA dye based nuclear count assay (NCA)
pEC50: −log10 of the molar value.
Result type: pEC50

Some solved entries appear below for comparison.
- Cc1cc(NC(=O)c2ccc(NS(=O)(=O)CCO)cc2C2=CCC3(CC2)CC3)nc(N2CCC(F)(F)CC2)c1: 7.19
- Cc1cc(NC(=O)c2ccc(NS(=O)(=O)CCO)cc2C2CCC3(CC2)CC3)nc(N2CCC(F)(F)CC2)n1: 5.87
- Cc1cc(NC(=O)c2ccc(NS(=O)(=O)CCO)cc2N2CC3CC3C2)nc(N2CCC(F)(F)CC2)n1 (stereo unspecified): 5.68
- Cc1cc(NC(=O)c2ccc(NS(=O)(=O)CCO)cc2C2=CCC3(CC2)CC3)nc(C2CCC(F)(F)CC2)n1: 6.73
- O=C(Nc1cccc(N2CCC(F)(F)CC2)c1)c1ccc(NS(=O)(=O)CCO)cc1C1=CCC2(CC1)CC2: 6.47
- Cc1cc(NC(=O)c2ccc(NS(=O)(=O)CCO)cc2C2=CCC3(CC2)CC3)nc(N2CC3CC3C2)n1 (stereo unspecified): 6.13
- O=C(Nc1ccnc(N2CCC(F)(F)CC2)c1)c1ccc(NS(=O)(=O)CCO)cc1C1=CCC2(CC1)CC2: 5.79
- Cc1cc(NC(=O)c2ccc(NS(=O)(=O)CCO)cc2N2C3CCC2CC2(CC2)C3)nc(N2CCC(F)(F)CC2)n1: 6.33

a. Cc1cc(NC(=O)c2ccc(NS(=O)(=O)CCO)cc2C2=CCC3(CC2)CC3)nc(N2CCC(F)(F)CC2)n1
b. O=C(Nc1cccc(N2CCC(F)(F)CC2)n1)c1ccc(NS(=O)(=O)CCO)cc1C1=CCC2(CC1)CC2
Task: Thinking about recorded pEC50 values, which is higher, a or b ? Provide the label of your selected option as the answer.
Result: b
(b: 7.74, a: 7.15)

P. O=C(Nc1ccc(F)c(N2CCC(F)(F)CC2)n1)c1ccc(NS(=O)(=O)CCO)cc1C1=CCC2(CC1)CC2
Q. Cc1cc(NC(=O)c2ccc(NS(=O)(=O)CCO)cc2C2=CCC3(CC2)CC3)nc(N2CCCC2)n1
Task: Would you kindly point out which of P and Q has the smaller pEC50 figure? Response format: the label of the selected entry.
Result: Q

Data provenance: ChEMBL document CHEMBL6071182
